Hello, the source for this data is ChEMBL document CHEMBL1201862, in case you need it.

- Test system: OVCAR-8
- Measurement Description: NCI tumour cell line growth inhibition, 48 h
Active and inactive are the calls of the source. No stated cut-off is given here; in the data, active = GI50 up to about 1.1 µM and inactive = higher.
Examples of compounds with documented GI50 follow.

>>> print(df.to_string())
                                   compound  observation_type       value_reported
0  COc1ccc(OC(C(=O)O)C(C)C)c2c1CCCC2=O (configuration not stated)              GI50  > 100 µM (inactive)
1  COc1ccc(CCN(C)C(=O)CC(C#N)(c2ccccc2)c2ccc(OC)c(OC)c2)cc1OC (configuration not stated)              GI50  > 100 µM (inactive)
2         COc1ccc(N(C)S(=O)(=O)c2ccccc2)cc1              GI50  > 100 µM (inactive)

query: Indicate its recorded GI50; the compound in question is COC(=O)C1=C(C)NC(C)=C(C(=O)OC)C1c1cccc(/[N+]([O-])=C/c2ccccc2)c1
result: 17.5 µM (inactive)

query: Indicate its recorded GI50; the compound in question is Cc1ccc2c(c1)C(=O)C1(C2)Cc2cccc(C)c2C1=O (configuration not stated)
result: > 100 µM (inactive)

query: Indicate its recorded GI50; the compound in question is CC1(C)CC(=O)C(/C(=N/NC(=S)NN)C(=O)Nc2nc3ccc([N+](=O)[O-])cc3s2)C(=O)C1
result: > 100 µM (inactive)

query: Indicate its recorded GI50; the compound in question is CCOC(=O)C(Cc1c(C=O)[nH]c2ccccc12)(NC(=O)c1ccccc1)C(=O)OCC
result: 19.1 µM (inactive)

query: Indicate its recorded GI50; the compound in question is CCCCCCCC(=O)OCC(C[As](=O)(O)O)OC(=O)CCCCCCC (configuration not stated)
result: 15.8 µM (inactive)

query: Indicate its recorded GI50; the compound in question is Cc1c2ccccc2cc2ccc3oc([N+](=O)[O-])cc3c12
result: > 100 µM (inactive)

query: Indicate its recorded GI50; the compound in question is CN(C)CCNC(=O)c1cccc2c(NCC(=O)O)c3ccccc3nc12
result: 4.61 µM (inactive)

query: Indicate its recorded GI50; the compound in question is Oc1ccc(-c2nc3ccc(Br)cc3s2)cc1
result: 20.4 µM (inactive)

query: Indicate its recorded GI50; the compound in question is CCOC(=O)C1=C(N)N(c2ccccc2)/C(=C(/C#N)c2nc3ccccc3[nH]2)S1
result: > 100 µM (inactive)

query: Indicate its recorded GI50; the compound in question is CCNC(C)Cc1ccccc1 (configuration not stated)
result: > 100 µM (inactive)

query: Indicate its recorded GI50; the compound in question is COC(=O)/C(=N\NC(N)=O)C(C#N)c1ccccc1 (configuration not stated)
result: > 100 µM (inactive)

query: Indicate its recorded GI50; the compound in question is CC(C)(C)C1=CC(=N/N=c2\scc(-c3ccccc3)n2Cc2ccccc2)C=C(C(C)(C)C)C1=O
result: > 100 µM (inactive)

query: Indicate its recorded GI50; the compound in question is C[N+](C)(C)C.FC(F)(F)C1(C(F)(F)F)O[SiH-]2(OC(C(F)(F)F)(C(F)(F)F)c3ccccc32)c2ccccc21
result: 15.3 µM (inactive)

query: Indicate its recorded GI50; the compound in question is CC(=O)N/C=C/c1cc(O)ccc1O
result: 45.7 µM (inactive)

====

- System: MOLT-4
- Measurement Description: NCI tumour cell line growth inhibition, 48 h
The source made the active and inactive calls. Cut-off read from the data, not from the text of the source: active = GI50 up to about 1.1 µM and inactive = higher.
Log the outcome using a class from T = active, F = inactive

Solved cases below.
Compound	Class Label
CSc1cccc(NC(=O)OC2CCCCCCCCCCC2)c1	F
COc1ccc(OC(C(=O)O)C(C)C)c2c1CCCC2=O (stereo unspecified)	F
Cn1c(=O)c2c(nc3n2CCCC(=O)N3CCCCl)n(C)c1=O	F
Cc1nc(=O)c2cc(CN(C)c3ccc(C(=O)N[C@@H](CCC(=O)O)C(=O)O)s3)ccc2[nH]1 [RALTITREXED]	T
O=C(/C=C/c1ccc(O)c(O)c1)OC1C[C@@](O)(C(=O)O)C[C@@H](O)[C@H]1OC(=O)/C=C/c1ccc(O)c(O)c1 (stereo partly specified)	F

Here is another compound to look at.
query: Tell me the recorded outcome of this test for CCOC(=O)OC1C(Br)C2CCC1(C)C2(C)C (stereo unspecified) .
result: F

====

- System: LOX IMVI
- Measurement Description: NCI tumour cell line growth inhibition, 48 h
Calls of active or inactive are those of the source. Cut-off read from the data, not from the text of the source: active = GI50 up to about 1.1 µM and inactive = higher.
Log the outcome using a class from true for active, false for inactive

Solved cases below.
In [3]: df
Out[3]:
                                   molecule  class_label
0     O=C1CCCc2cc3c(cc21)CC1(Cc2ccccc2C1)C3        false
1                   NC(=O)/C=C/NC(=O)/C=N\O        false
2  COc1cc([C@@H]2c3cc4c(cc3[C@@H](NC(=O)c3ccc(C(C)=O)cc3)C3COC(=O)[C@@H]32)OCO4)cc(OC)c1O (stereo partly drawn)         true
3  Nc1nc(N)c2c(Cl)c(CNc3ccc(C(=O)NC(CC(=O)O)C(=O)O)cc3)ccc2n1 (stereo not drawn)         true
4  CN(/N=C/c1ccc(OCc2cccc(COc3ccc(C=O)cc3)n2)cc1)c1cnn(-c2ccc(Cl)cc2Cl)c(=O)c1Cl        false
5  COC(=O)C1Cc2cc3c(cc2C1=O)CCC3 (stereo not drawn)        false
6  O/N=C1\CCCCC1C(NO)c1ccccc1 (stereo not drawn)        false
7  COC(=O)CC1CN(C(=O)OCc2ccccc2)C(C)(C)O1 (stereo not drawn)        false

query: Tell me the recorded outcome of this test for O=C(O)c1ccc(NNC(=O)c2cccc3c(=O)c4ccccc4[nH]c23)cc1 .
result: false

query: Tell me the recorded outcome of this test for CC(=O)NC1=C(OS(=O)(=O)c2ccc(C)cc2)CN(C)C1=O .
result: false

query: Tell me the recorded outcome of this test for O=c1/c(=C/c2ccccc2[N+](=O)[O-])sc2nc3ccccc3n12 .
result: false

query: Tell me the recorded outcome of this test for COc1ccc(N(C)S(=O)(=O)c2ccccc2)cc1 .
result: false

query: Tell me the recorded outcome of this test for O=C(Nc1cccc(C(F)(F)F)c1)c1cc(-c2ccccc2)nc(S)n1 .
result: false

query: Tell me the recorded outcome of this test for COC(=O)c1s/c(=N\C(=S)N(C)C)n(-c2ccc(Cl)cc2)c1C(=O)OC .
result: false

query: Tell me the recorded outcome of this test for CCCCCCCCC/C=C1/CC(CO)(COC(=O)CC(C(C)C)C(C)C)OC1=O (stereo not drawn) .
result: false

query: Tell me the recorded outcome of this test for COc1cc(/C=C(\C#N)c2ccccc2)cc(OC)c1 .
result: false

query: Tell me the recorded outcome of this test for Cc1ccc2c(c1)C(=O)C1(C2)Cc2cccc(C)c2C1=O (stereo not drawn) .
result: false

query: Tell me the recorded outcome of this test for CCN(CC)C(=S)SS(=O)(=O)c1cccc(N)c1 .
result: false

query: Tell me the recorded outcome of this test for CS(=O)(=O)N1CC(CCl)c2ccc(O)cc21 (stereo not drawn) .
result: false

query: Tell me the recorded outcome of this test for CC(=O)c1cnc2oc3ccc(O)cc3c2c1-c1ccccc1 .
result: false

query: Tell me the recorded outcome of this test for CCC1(C(=O)OC(C)(C)C)OC12C(C)CCCC2C (stereo not drawn) .
result: false

====

- System: MDA-MB-435
- Measurement Description: NCI tumour cell line growth inhibition, 48 h
Calls of active or inactive are those of the source. Cut-off read from the data, not from the text of the source: active = GI50 up to about 1.1 µM and inactive = higher.
Log the outcome using a class from Yes = active, No = inactive

Solved cases below.
>>> print(df.to_string())
                                   compound  target_or_system  class_label
0         COc1ccc(N(C)S(=O)(=O)c2ccccc2)cc1        MDA-MB-435           No
1  O=C1Nc2c(Cl)cc(Cl)cc2/C1=N/NC(=O)c1ccncc1        MDA-MB-435           No
2  N=C(N)SCc1ccc(Cl)cc1Cl.O=[N+]([O-])c1c(O)c(Cl)cc(Cl)c1Cl        MDA-MB-435           No
3       COC1(OC)CC(CO)(CNc2cc(Cl)nc(N)n2)C1        MDA-MB-435           No
4  OC(CCN1CCN(CCOC(c2ccccc2)c2ccccc2)CC1)c1ccccc1 (stereo not given)        MDA-MB-435           No

query: Tell me the recorded outcome of this test for CC(=O)c1cnc2oc3ccc(O)cc3c2c1-c1ccccc1 .
result: No

query: Tell me the recorded outcome of this test for C=CCN1C(=O)CC(=O)N(NC2=NNC3(C(=O)N2)c2ccccc2-c2ccccc23)C1=S .
result: No

query: Tell me the recorded outcome of this test for COc1ccc(CC2COc3cc(OC)cc(OC)c3C2=O)cc1 (stereo not given) .
result: No

query: Tell me the recorded outcome of this test for COc1ccc(N2C(=O)/C(=C\c3ccccc3)SC2c2cc(OC)c(OC)c(OC)c2)cc1 (stereo not given) .
result: No

query: Tell me the recorded outcome of this test for CCCCCCCCCCCCCCCCCCNc1ccn(C2OC(COP(=O)(O)OCCCCCCCCCCCCCCCC)C(O)C2O)c(=O)n1 (stereo not given) .
result: No
